The following binders are listed with their measured kon values.
- subject_of_test: T1, human LAP-TGFB1 Fc fusion (human)
- T1 construct: also called human LAP-TGFβ1-Fc; human LAP-TGFβ-Fc isoform 1
- experiment: SPR, antigen-Fc captured, Fab analyte
Kindly provide the numeric value in M⁻¹ s⁻¹ only, without the unit symbol.

These recorded examples may help you get a feel for the data.
>>> observed_measurement("62BJN (Fab, V domains shown, also called VH W33D Q54Y S55G W99Y Y101H / VL T30Y (62BJN)) VH: EVQLVQSGAEVKKPGASVKVSCKASGYTFTSYDMHWVRQAPGQGLEWMGRIDPYGGGIKYAQKFQGRATLTVDTSTSTAYMELSRLRSDDTAVYYCARYDHGGYFDVWGQGTLVTVSS VL: DIQMTQSPSSLSASVGDRVTITCRASQDIYNYLNWYQQKPGKAVKLLIYYTSRLHSGVPSRFSGSGSGTDYTLTISSLQPEDFATYFCQQGDTLPWTFGQGTKLEIKR")
"2.05e+06"
>>> observed_measurement("69BJN (Fab, V domains shown, also called VH W33D I58T / VL T30Y R53V (69BJN)) VH: EVQLVQSGAEVKKPGASVKVSCKASGYTFTSYDMHWVRQAPGQGLEWMGRIDPQSGGTKYAQKFQGRATLTVDTSTSTAYMELSRLRSDDTAVYYCARWDYGGYFDVWGQGTLVTVSS VL: DIQMTQSPSSLSASVGDRVTITCRASQDIYNYLNWYQQKPGKAVKLLIYYTSVLHSGVPSRFSGSGSGTDYTLTISSLQPEDFATYFCQQGDTLPWTFGQGTKLEIKR")
"4.25e+06"

### Prompt # lookup: kon of 60BJN (Fab, V domains shown, also called VH W33D I58E W99Y / VL T30Y (60BJN)) VH: EVQLVQSGAEVKKPGASVKVSCKASGYTFTSYDMHWVRQAPGQGLEWMGRIDPQSGGEKYAQKFQGRATLTVDTSTSTAYMELSRLRSDDTAVYYCARYDYGGYFDVWGQGTLVTVSS VL: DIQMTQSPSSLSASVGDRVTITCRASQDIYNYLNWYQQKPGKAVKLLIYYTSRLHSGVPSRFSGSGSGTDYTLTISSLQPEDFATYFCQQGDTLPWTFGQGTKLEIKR
### Response 2.54e+06

### Prompt Quick one: kon for 20E6 Fab (80BGJ/85BIT) (Fab, V domains shown, also called 20E6 (80BGJ); 20E6 (85BIT)) VH: EVQLVQSGAEVKKPGASVKVSCKASGYTFTSYWMHWVRQAPGQGLEWMGRIDPQSGGIKYAQKFQGRATLTVDTSTSTAYMELSRLRSDDTAVYYCARWDYGGYFDVWGQGTLVTVSS VL: DIQMTQSPSSLSASVGDRVTITCRASQDITNYLNWYQQKPGKAVKLLIYYTSRLHSGVPSRFSGSGSGTDYTLTISSLQPEDFATYFCQQGDTLPWTFGQGTKLEIKR ?
### Response 960000

### Prompt Given 67BJN (Fab, V domains shown, also called VH W33D / VL T30Y R53V (67BJN)) VH: EVQLVQSGAEVKKPGASVKVSCKASGYTFTSYDMHWVRQAPGQGLEWMGRIDPQSGGIKYAQKFQGRATLTVDTSTSTAYMELSRLRSDDTAVYYCARWDYGGYFDVWGQGTLVTVSS VL: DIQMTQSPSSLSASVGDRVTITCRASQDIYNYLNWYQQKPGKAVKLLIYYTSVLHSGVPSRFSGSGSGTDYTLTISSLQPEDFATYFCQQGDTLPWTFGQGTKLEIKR , state its recorded kon.
### Response 4.87e+06

### Prompt # kon lookup, item 80BJN (Fab, V domains shown, also called VH W33D K59R Y104Q / VL T30Y R53I (80BJN)) VH: EVQLVQSGAEVKKPGASVKVSCKASGYTFTSYDMHWVRQAPGQGLEWMGRIDPQSGGIRYAQKFQGRATLTVDTSTSTAYMELSRLRSDDTAVYYCARWDYGGQFDVWGQGTLVTVSS VL: DIQMTQSPSSLSASVGDRVTITCRASQDIYNYLNWYQQKPGKAVKLLIYYTSILHSGVPSRFSGSGSGTDYTLTISSLQPEDFATYFCQQGDTLPWTFGQGTKLEIKR
### Response 4.15e+06

### Prompt Please look up its kon: 61BJN (Fab, V domains shown, also called VH S31D W33D G57D I58H K59D W99Y Y101H / VL T30Y (61BJN)) VH: EVQLVQSGAEVKKPGASVKVSCKASGYTFTDYDMHWVRQAPGQGLEWMGRIDPQSGDHDYAQKFQGRATLTVDTSTSTAYMELSRLRSDDTAVYYCARYDHGGYFDVWGQGTLVTVSS VL: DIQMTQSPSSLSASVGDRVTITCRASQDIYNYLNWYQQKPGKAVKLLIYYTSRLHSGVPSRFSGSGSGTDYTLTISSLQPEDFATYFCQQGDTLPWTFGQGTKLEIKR
### Response 1.59e+06

### Prompt For the binder 78BJN (Fab, V domains shown, also called VH W33D K59R / VL T30Y R53N T93E (78BJN)) VH: EVQLVQSGAEVKKPGASVKVSCKASGYTFTSYDMHWVRQAPGQGLEWMGRIDPQSGGIRYAQKFQGRATLTVDTSTSTAYMELSRLRSDDTAVYYCARWDYGGYFDVWGQGTLVTVSS VL: DIQMTQSPSSLSASVGDRVTITCRASQDIYNYLNWYQQKPGKAVKLLIYYTSNLHSGVPSRFSGSGSGTDYTLTISSLQPEDFATYFCQQGDELPWTFGQGTKLEIKR , what kon is on record?
### Response 5.52e+06

### Prompt For the binder 76BJN (Fab, V domains shown, also called VH S31Y W33D Q54Y S55D G57D / VL T30Y R53L T93E (76BJN)) VH: EVQLVQSGAEVKKPGASVKVSCKASGYTFTYYDMHWVRQAPGQGLEWMGRIDPYDGDIKYAQKFQGRATLTVDTSTSTAYMELSRLRSDDTAVYYCARWDYGGYFDVWGQGTLVTVSS VL: DIQMTQSPSSLSASVGDRVTITCRASQDIYNYLNWYQQKPGKAVKLLIYYTSLLHSGVPSRFSGSGSGTDYTLTISSLQPEDFATYFCQQGDELPWTFGQGTKLEIKR , what kon is on record?
### Response 1.8e+06

### Prompt Entry 72BJN (Fab, V domains shown, also called VH S31Q W33D W99Y / VL T30Y R53I (72BJN)) VH: EVQLVQSGAEVKKPGASVKVSCKASGYTFTQYDMHWVRQAPGQGLEWMGRIDPQSGGIKYAQKFQGRATLTVDTSTSTAYMELSRLRSDDTAVYYCARYDYGGYFDVWGQGTLVTVSS VL: DIQMTQSPSSLSASVGDRVTITCRASQDIYNYLNWYQQKPGKAVKLLIYYTSILHSGVPSRFSGSGSGTDYTLTISSLQPEDFATYFCQQGDTLPWTFGQGTKLEIKR has what kon?
### Response 4.85e+06
